Molecular target: T1, human LAIR1 extracellular domain (ECD) protein with 6 HIS tag at the C-terminus (human, UniProt Q6GTX8 22-165)
T1 construct: Produced recombinantly in HEK293 cells; the whole entry is named here; also called LAIR1 ECD; LAIR1-ECD
T1 chain: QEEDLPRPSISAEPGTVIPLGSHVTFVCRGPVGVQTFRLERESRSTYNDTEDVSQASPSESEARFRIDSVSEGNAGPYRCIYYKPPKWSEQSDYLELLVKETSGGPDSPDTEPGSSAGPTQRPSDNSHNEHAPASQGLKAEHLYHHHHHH
Assay: ELISA, LAIR1 ECD coated
observable: EC50 (read off the curve)

binder: LA-252 (antibody, V domains shown, Rabbit monoclonal IgG; Called a potential antagonist antibody) VH: EQSVEESGGRLVTPGTPLTLTCTASGFTISDYHMCWVRQAPGKGLEWIGLIRASHSTAYASWANGRFTISRTSTTVDLKITSPTSEDTATYFCARYGGSGIGCNLWGPGTLVTISS VL: ELVLTQTPASVSEPVGGTVTIKCQASQSIDSNLAWYQQKPGQPPKQLIYAVSNLASGVPSRFKGSGSGTEFTLTISDLECADAASYYCECTYYGNSYVGGFGGGTEVEIK
observable: EC50 (read off the curve)
reported-measurement: ~8 ng/mL
//
binder: LA-258-2 (antibody, V domains shown, Rabbit monoclonal IgG) VH: QSVKESGGDLVKPEGSLTLTCKASGFSFSNSYYMCWVRQAPGKGLEWIACIYTGSTSGTYYASWVNGRFTISKTPSTTVTLQMTSLTVADTATYFCSRKLTNFNGAYLDLWGPGTLVTISS VL: ELVMTQTPSSVEAAVGGTVTIKCQASQSIYSYLAWYQQKPGQPPKVLIYKASTLASGVPSRFKGSGSGTDFTLTISDLECADAATYYCQANNGGSDNNFGGGTEVEIK
observable: EC50 (read off the curve)
reported-measurement: ~50 ng/mL
//
binder: LA-245 (antibody, V domains shown, Rabbit monoclonal IgG) VH: QSLQESRGRLVTPGTPLTLTCTASGFSLSSYHMGWVRQAPGKGLEWIGYIHTNRNTWYANWAKGRFTISKTSSTTVNLRMTSPTTEDTATYFCARGSYGDYNFLFDVWGPGTLVTVSS VL: ELVMTQTPASVSEPVGGTVTINCQASEDISIYLAWYQQKPGQPPKLLIYDASTLESGVPSRFSGSGSRTQFTLTISDLECADAATYYCQQYSTTDTNNLFGGGTEVEIK
observable: EC50 (read off the curve)
reported-measurement: ~10 ng/mL
//
binder: LA-82 (antibody, V domains shown, Rabbit monoclonal IgG; also called mAb LA-82) VH: EQSLEESGGDLVKPGASLTLACTASGFSFSDGYYMCWVRQAPGKGLEWIGCIHSSSGSIYYASWAKGRFTISKTSSTMVTLQMSSLTAADTATYFCARDSESYGYNPCELWGPGTLVTISS VL: ELVMTQTPASVSEAVGGTVTIKCQASQTISNYLAWYQQKPGQRPKLLIYAASSLASGVSSRFRGSRSGTEYTLTITDLECDDAATYYCQCTYYGTTYIGGAFGGGTEVEIK
observable: EC50 (read off the curve)
reported-measurement: ~10 ng/mL
//
binder: LA-142-1 (antibody, V domains shown, Rabbit monoclonal IgG) VH: AAVKESGGRLVTPGTPLTLTCTASGFSLYKYNIQWVRQAPGKGLEYIGASTYAGYTYYASWAKGRVTISRTSTTVDLKMTSPTTEDTATYFCARHIDGDYSGYALWGPGTLVTVSS VL: ELVLTQTPASVSAAVGGTVTIKCQASQSIGTWFAWYQQKPGQSPKLLIYGPSKLASGVPPRFKGSGSGTEFTLTISDLECADAATYYCQSTYFGVDYLGGTFGGGTEVEIK
observable: EC50 (read off the curve)
reported-measurement: ~40 ng/mL
//
binder: LA-61 (antibody, V domains shown, Rabbit monoclonal IgG; also called mAb LA-61) VH: EQLMEESGGRLVTPGTPLTLTCTASGFDVNAYHMGWVRQAPGKGLEWIGYIYSGGTIFYANWAKGRFTLSRTSTTVDLKITSPTTEDTATYFCARGGYDNYNILYDLWGPGTLVTISS VL: ELDMTQTPASVSEPVGGTVTIKCQASQSISVYLAWYQQKPGQPPKLLIYDASTLTSGVPSRFKGSGSGTEFTLTISDLECADAAAYYCQSYDGTPTAAFGGGTEVVVK
observable: EC50 (read off the curve)
reported-measurement: ~20 ng/mL
//
binder: LA-29 (antibody, V domains shown, Rabbit monoclonal IgG; also called mAb LA-29) VH: SSSVEESGGGLVQPEGSLTLTCTASGFSFSSRYYMCWVRQAPGKGLEWIACIYNGDGSRYYASWAKGRFTISKTSSTTVTLQMTSLTAADTATYFCVRDRHTAFVDYGDDNLWGPGTLVTVSS VL: ELDLTQTPASVSEPVGGTVTIKCQASQSIYSNLAWYQQKPGQPPKLLIYRASTLASGVPSRFKGSGAGTEFTLTISDLECADAATYYCQCTYDGISYVPSSFGGGTEVVVK
observable: EC50 (read off the curve)
reported-measurement: ~10 ng/mL
//
binder: LA-142-2 (antibody, V domains shown, Rabbit monoclonal IgG) VH: AAVKESGGRLVTPGTPLTLTCTASGFSLYKYNIQWVRQAPGKGLEYIGASTYAGYTYYASWAKGRVTISRTSTTVDLKMTSPTTEDTATYFCARHIDGDYSGYALWGPGTLVTVSS VL: ELVLTQTPASVSAAVGGTVTIKCQASQSIGTWFAWYQQKPGQSPKLLIYGASNLASGVSSRFKGIRSGTEYTLTISDLECADAATYYCQCSDVGNTYGAAFGGGTEVEIN
observable: EC50 (read off the curve)
reported-measurement: ~40 ng/mL
//
binder: LA-117 (antibody, V domains shown, Rabbit monoclonal IgG) VH: QSVKESGGDLVKPGASLTLACTASGFSFSDGYYMCWVRQAPGKGLEWIGCIHSSSGSIYYASWAKGRFTISKTSSTMVTLQMSSLTAADTATYFCARDSESYGYNPCELWGPGTLVTISS VL: ELDLTQTPASVSEAVGGTVTIKCQASQTISNYLAWYQQKPGQRPKLLIYAASSLASGVSSRFRGSRSGTEYTLTITDLECDDAATYYCQCTYYGTTYVGGAFGGGTELEIK
observable: EC50 (read off the curve)
reported-measurement: ~10 ng/mL
//
binder: LA-56 (antibody, V domains shown, Rabbit monoclonal IgG; also called mAb LA-56) VH: SSSVEESGGRLVTPGTPLTLTCTVSGFSLSAYWVGWVRQAPGKGLEYIGFVDVDIYYASWARGRFTISKTSSTTVDLILTSPTMEDTATYFCVRMSYNAMDLWGPGTLVTISS VL: ELDLTQTASSVSAAVGDTVTINCQSSESVYKDNFLSWYQQKPGQPPKLLIYRASTLASGVPSRFKGSGSGSQFTLTISDVVCDDAATYYCSGYRNSHDGLPFGGGTEVEIK
observable: EC50 (read off the curve)
reported-measurement: ~7 ng/mL
